target: hERG (KCNH2) (Homo sapiens); test: Displacement of [3H]dofetilide from human ERG stably expressed in HEK293 cell membranes assessed as residual binding level at 10 uM measured after 60 mins by microbeta liquid scintillation counting method relative to control; set-up: species or system Membrane; settings: membranes of HEK293 cells stably expressing hERG, probe [3H]dofetilide, read-out: Activity
Sequence (Q12809 whole entry): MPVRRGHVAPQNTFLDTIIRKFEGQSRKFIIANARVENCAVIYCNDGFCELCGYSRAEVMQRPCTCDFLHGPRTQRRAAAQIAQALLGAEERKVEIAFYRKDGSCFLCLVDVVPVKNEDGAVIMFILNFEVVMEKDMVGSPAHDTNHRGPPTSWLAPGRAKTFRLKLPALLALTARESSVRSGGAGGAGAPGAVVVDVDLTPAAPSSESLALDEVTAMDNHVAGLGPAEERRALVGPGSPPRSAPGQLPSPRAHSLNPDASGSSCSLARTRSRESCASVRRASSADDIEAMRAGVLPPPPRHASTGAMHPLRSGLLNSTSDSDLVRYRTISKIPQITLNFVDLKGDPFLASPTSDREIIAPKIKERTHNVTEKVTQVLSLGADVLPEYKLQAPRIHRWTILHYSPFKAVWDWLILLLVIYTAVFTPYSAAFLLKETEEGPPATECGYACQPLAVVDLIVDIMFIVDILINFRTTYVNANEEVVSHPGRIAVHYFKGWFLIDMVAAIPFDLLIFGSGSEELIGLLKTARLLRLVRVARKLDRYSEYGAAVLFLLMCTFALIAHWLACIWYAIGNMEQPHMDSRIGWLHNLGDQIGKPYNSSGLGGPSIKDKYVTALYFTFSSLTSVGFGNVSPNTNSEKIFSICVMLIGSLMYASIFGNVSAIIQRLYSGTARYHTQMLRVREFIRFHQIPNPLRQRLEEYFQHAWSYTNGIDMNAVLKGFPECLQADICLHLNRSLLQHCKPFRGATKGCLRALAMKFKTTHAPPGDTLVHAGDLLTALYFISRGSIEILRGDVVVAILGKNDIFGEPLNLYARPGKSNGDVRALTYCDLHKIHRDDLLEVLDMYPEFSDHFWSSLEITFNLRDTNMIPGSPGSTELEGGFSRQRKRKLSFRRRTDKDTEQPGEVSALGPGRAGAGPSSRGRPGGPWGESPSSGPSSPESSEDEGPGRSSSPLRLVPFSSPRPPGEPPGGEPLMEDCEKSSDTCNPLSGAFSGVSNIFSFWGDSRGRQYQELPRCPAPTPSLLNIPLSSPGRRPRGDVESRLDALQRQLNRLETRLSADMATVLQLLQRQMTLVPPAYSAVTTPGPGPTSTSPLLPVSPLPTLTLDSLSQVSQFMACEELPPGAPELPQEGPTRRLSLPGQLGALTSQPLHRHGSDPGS
measuredMetric: activity at 1 h, 10 µM (%)
Numeric only. Scale: %

Under hERG (KCNH2) (Homo sapiens): report activity at 1 h, 10 µM of COc1ccc(NC(=O)COc2ccc(C(=O)c3cc(Cl)ccc3Br)cc2)cc1C#N .
60

# assay system hERG (KCNH2) (Homo sapiens): give activity at 1 h, 10 µM of O=C(COc1ccc(C(=O)c2cc(Cl)ccc2Br)cc1)Nc1cc(C(=O)NCC2CC2)ccc1Cl
89

Provide hERG (KCNH2) (Homo sapiens) activity at 1 h, 10 µM reading for O=C(COc1ccc(C(=O)c2cc(Cl)ccc2Br)cc1)Nc1ccncc1 .
26.1

// fetch activity at 1 h, 10 µM; item: N#Cc1cc(NC(=O)COc2ccc(C(=O)c3cc(Cl)ccc3Br)cc2)ccc1F ; system: hERG (KCNH2) (Homo sapiens)
22.7

Report the value of activity at 1 h, 10 µM obtained on hERG (KCNH2) (Homo sapiens) for O=C(COc1ccc(C(=O)c2cc(Cl)ccc2Br)cc1)Nc1cccc(C(=O)NCC2CCC2)c1 .
38

Retrieve activity at 1 h, 10 µM on hERG (KCNH2) (Homo sapiens); query O=C(COc1ccc(C(=O)c2cc(Cl)ccc2Br)cc1)Nc1ccnc(C(=O)NCC2CC2)c1
53

For hERG (KCNH2) (Homo sapiens), give the measured activity at 1 h, 10 µM of the entry COc1cc(NC(=O)COc2ccc(C(=O)c3cc(Cl)ccc3Br)cc2)ccn1
90

State the measured activity at 1 h, 10 µM (hERG (KCNH2) (Homo sapiens)) of O=C(COc1ccc(C(=O)c2cc(Cl)ccc2Br)cc1)Nc1cc(Cl)cc(C(=O)NCC2CC2)c1
36

Please indicate recorded activity at 1 h, 10 µM of O=C(COc1ccc(C(=O)c2cc(Cl)ccc2Br)cc1)Nc1ccnc(F)c1 measured with hERG (KCNH2) (Homo sapiens).
56.1

# lookup: hERG (KCNH2) (Homo sapiens) activity at 1 h, 10 µM, key = CC(C)CNC(=O)c1cccc(NC(=O)COc2ccc(C(=O)c3cc(Cl)ccc3Br)cc2)c1
46

For hERG (KCNH2) (Homo sapiens), give activity at 1 h, 10 µM of the listed molecule: O=C(COc1ccc(C(=O)c2cc(Cl)ccc2Br)cc1)Nc1cncc(C(=O)NCC2CC2)c1
2

State, for hERG (KCNH2) (Homo sapiens), measured activity at 1 h, 10 µM of the molecule listed here: O=C(COc1ccc(C(=O)c2cc(Cl)ccc2Br)cc1)Nc1cccc(C(=O)NC2CC2)c1
27

Retrieve activity at 1 h, 10 µM on hERG (KCNH2) (Homo sapiens); query N#Cc1cc(NC(=O)COc2ccc(C(=O)c3cc(Cl)ccc3Br)cc2)ccc1Cl
86

Write activity at 1 h, 10 µM of N#Cc1cc(Cl)cc(NC(=O)COc2ccc(C(=O)c3cc(Cl)ccc3Br)cc2)c1 ; system used: hERG (KCNH2) (Homo sapiens)
36

Under hERG (KCNH2) (Homo sapiens): report activity at 1 h, 10 µM of N#Cc1cccc(NC(=O)COc2ccc(C(=O)c3cc(Cl)ccc3Br)cc2)c1 .
20

Would you please give the reported activity at 1 h, 10 µM of N#Cc1ccc(Cl)c(NC(=O)COc2ccc(C(=O)c3cc(Cl)ccc3Br)cc2)c1 with hERG (KCNH2) (Homo sapiens)?
44

Specify activity at 1 h, 10 µM for O=C(COc1ccc(C(=O)c2cc(Cl)ccc2Br)cc1)Nc1cccc(C(=O)NCC2CC2)c1Cl , system hERG (KCNH2) (Homo sapiens).
-2

# return activity at 1 h, 10 µM for O=C(COc1ccc(C(=O)c2cc(Cl)ccc2Br)cc1)Nc1cccnc1 , test system: hERG (KCNH2) (Homo sapiens)
28.2

Under hERG (KCNH2) (Homo sapiens), report activity at 1 h, 10 µM for O=C(COc1ccc(C(=O)c2cc(Cl)ccc2Br)cc1)Nc1ccc(Cl)c(C(=O)NCC2CC2)c1
20

Give hERG (KCNH2) (Homo sapiens) activity at 1 h, 10 µM for the following molecule: O=C(COc1ccc(C(=O)c2cc(Cl)ccc2Br)cc1)Nc1cccc(C(=O)NCC2CC2)c1
36.6

Consider the molecule COc1ccc(C#N)cc1NC(=O)COc1ccc(C(=O)c2cc(Cl)ccc2Br)cc1 tested on hERG (KCNH2) (Homo sapiens); state its activity at 1 h, 10 µM.
28

// fetch activity at 1 h, 10 µM; item: O=C(COc1ccc(C(=O)c2ccccc2Br)cc1)Nc1cccnc1 ; system: hERG (KCNH2) (Homo sapiens)
29.8

Report activity at 1 h, 10 µM from hERG (KCNH2) (Homo sapiens) testing of Cc1cc(NC(=O)COc2ccc(C(=O)c3cc(Cl)ccc3Br)cc2)ccn1
9

Output reported activity at 1 h, 10 µM of the molecule CNC(=O)c1cccc(NC(=O)COc2ccc(C(=O)c3cc(Cl)ccc3Br)cc2)c1 on hERG (KCNH2) (Homo sapiens).
39.8

Consider the molecule Cc1ccc(NC(=O)COc2ccc(C(=O)c3cc(Cl)ccc3Br)cc2)cc1C#N tested on hERG (KCNH2) (Homo sapiens); state its activity at 1 h, 10 µM.
87

Send back hERG (KCNH2) (Homo sapiens) activity at 1 h, 10 µM of Cc1cnccc1NC(=O)COc1ccc(C(=O)c2cc(Cl)ccc2Br)cc1 only.
15

Answer briefly: activity at 1 h, 10 µM recorded on hERG (KCNH2) (Homo sapiens) for O=C(COc1ccc(C(=O)c2cc(Cl)ccc2Br)cc1)Nc1ccnc(Cl)c1
52

Provide measured activity at 1 h, 10 µM on hERG (KCNH2) (Homo sapiens) for N#Cc1cccc(NC(=O)COc2ccc(C(=O)c3cc(Cl)ccc3Br)cc2)c1F please.
21
